- assay_system: HLA-A*23:01
- assay_info: IEDB peptide-MHC binding, purified MHC/direct/fluorescence; filed as Kd, often an IC50 or EC50 that approximates it; bounds were set here for any values at or beyond the usual limits of such assays
- reported_conditions: source organism: Araucaria virus
pKd: −log10 of the molar value.
measured_property: pKd

>>> measured_result("AQKLATKPV")
"≤ 4.70"

----------
- assay_system: HLA-A*02:03
- assay_info: IEDB peptide-MHC binding, purified MHC/direct/fluorescence; filed as Kd, often an IC50 or EC50 that approximates it; bounds were set here for any values at or beyond the usual limits of such assays
- reported_conditions: source organism: Salmonella enterica subsp. enterica serovar Berta
measured_property: Kd

>>> measured_result("HQDDGQPRL")
"≥ 20 µM"

----------
- assay_system: HLA-B*18:01
- assay_info: IEDB peptide-MHC binding, purified MHC/competitive/fluorescence; filed as Kd, often an IC50 or EC50 that approximates it; bounds were set here for any values at or beyond the usual limits of such assays
- reported_conditions: source organism: Vibrio cholerae 2740-80
pKd: −log10 of the molar value.
measured_property: pKd

>>> measured_result("YEPEMQAQV")
"≤ 4.70"

----------
- assay_system: HLA-A*30:02
- assay_info: IEDB peptide-MHC binding, purified MHC/competitive/radioactivity; filed as Kd, often an IC50 or EC50 that approximates it; bounds were set here for any values at or beyond the usual limits of such assays
- reported_conditions: source organism: Variola virus
pKd: −log10 of the molar value.
measured_property: pKd

>>> measured_result("SQSDTVFDH")
"≤ 4.11"

----------
- assay_system: HLA-A*24:02
- assay_info: IEDB peptide-MHC binding, purified MHC/competitive/fluorescence; bounds were set here for any values at or beyond the usual limits of such assays
- reported_conditions: source organism: Variola virus
pIC50: −log10 of the molar value.
measured_property: pIC50

>>> measured_result("TPKAQREIF")
4.85
>>> measured_result("FLPNPAFIH")
6.30

----------
- assay_system: HLA-B*58:01
- assay_info: IEDB peptide-MHC binding, purified MHC/direct/fluorescence; filed as Kd, often an IC50 or EC50 that approximates it; bounds were set here for any values at or beyond the usual limits of such assays
- reported_conditions: source organism: Vibrio parahaemolyticus
pKd: −log10 of the molar value.
# pKd per entry
measured_property: pKd

>>> measured_result("ALSMGINTV")
"≤ 4.70"
>>> measured_result("EEDLPVTWR")
"≤ 4.70"
>>> measured_result("GRNSRFPDK")
"≤ 4.70"

----------
- assay_system: HLA-B*18:01
- assay_info: IEDB peptide-MHC binding, purified MHC/competitive/fluorescence; filed as Kd, often an IC50 or EC50 that approximates it; bounds were set here for any values at or beyond the usual limits of such assays
- reported_conditions: source organism: Araucaria virus
measured_property: Kd

>>> measured_result("AQKLATKPV")
"≥ 20 µM"

----------
- assay_system: HLA-B*73:01
- assay_info: IEDB peptide-MHC binding, purified MHC/direct/fluorescence; filed as Kd, often an IC50 or EC50 that approximates it; bounds were set here for any values at or beyond the usual limits of such assays
- reported_conditions: source organism: Yersinia pestis CA88-4125
pKd: −log10 of the molar value.
measured_property: pKd

>>> measured_result("SRWAISHWL")
6.78
